- assayed-target: Mitogen-activated protein kinase 8 (Homo sapiens)
- Sequence (P45983 whole entry): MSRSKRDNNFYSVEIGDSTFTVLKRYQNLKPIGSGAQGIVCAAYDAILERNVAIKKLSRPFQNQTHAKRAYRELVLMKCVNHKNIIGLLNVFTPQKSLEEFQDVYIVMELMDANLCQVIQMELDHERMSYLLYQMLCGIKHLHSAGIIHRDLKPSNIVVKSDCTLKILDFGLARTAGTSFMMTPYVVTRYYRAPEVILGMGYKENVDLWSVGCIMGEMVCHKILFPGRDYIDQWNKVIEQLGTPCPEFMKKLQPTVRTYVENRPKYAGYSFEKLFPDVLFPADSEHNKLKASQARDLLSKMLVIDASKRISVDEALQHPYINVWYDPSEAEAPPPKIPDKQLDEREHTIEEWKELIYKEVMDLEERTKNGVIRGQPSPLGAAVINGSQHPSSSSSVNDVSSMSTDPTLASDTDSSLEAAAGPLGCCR
- procedure-summary: Inhibition of human JNK1 by radiometric assay
Give pIC50 for every item shown.
Remember, pIC50 is on a log scale: it is -log10 of the molar concentration.

QUERY: Would you kindly share the measured pIC50 for `CCC(=O)c1c(-c2ccccc2)c2cc(Cl)ccc2c(=O)n1Cc1cc(S(C)(=O)=O)n(CC(F)F)n1` ?
RESULT: 8.00

QUERY: Would you kindly share the measured pIC50 for `CCNC(=O)n1cc(Cn2c(C(=O)CC)c(-c3ccccc3)c3cc(Cl)ccc3c2=O)cn1` ?
RESULT: 7.37

QUERY: Would you kindly share the measured pIC50 for `CCC(=O)c1c(-c2ccccc2)c2cc(Cl)ccc2c(=O)n1Cc1cc(C(=O)NC)n[nH]1` ?
RESULT: 7.48
